tested.target: T1, human IL-33 (R&D Systems, #3625-IL-010/CF) (human, UniProt O95760 112-270)
T1 construct: Commercial recombinant protein; also called hIL-33; interleukin-33
T1 sequence (looked up): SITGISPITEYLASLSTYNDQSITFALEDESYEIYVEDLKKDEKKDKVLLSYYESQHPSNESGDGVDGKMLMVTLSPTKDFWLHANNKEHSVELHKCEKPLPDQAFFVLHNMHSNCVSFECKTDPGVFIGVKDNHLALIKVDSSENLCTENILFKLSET
test.protocol: SPR 37C, pH6.0 chase, mAb captured
The entries below are paired with their reported koff.
Just the number please, in s⁻¹, no unit attached.

Please review the following examples before continuing.
binder	koff [s⁻¹]
H1M9559N (antibody, mouse IgG1, V domains shown, Human variable domains, mouse IgG1 Fc (H1M)) VH: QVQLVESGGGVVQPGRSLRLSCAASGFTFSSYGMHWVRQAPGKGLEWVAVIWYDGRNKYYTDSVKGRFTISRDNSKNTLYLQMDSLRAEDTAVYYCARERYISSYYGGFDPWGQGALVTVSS VL: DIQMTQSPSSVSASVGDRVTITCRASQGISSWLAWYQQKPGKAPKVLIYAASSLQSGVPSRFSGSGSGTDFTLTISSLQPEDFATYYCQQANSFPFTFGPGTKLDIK	0.000992
H1M9568N (antibody, mouse IgG1, V domains shown, Human variable domains, mouse IgG1 Fc (H1M)) VH: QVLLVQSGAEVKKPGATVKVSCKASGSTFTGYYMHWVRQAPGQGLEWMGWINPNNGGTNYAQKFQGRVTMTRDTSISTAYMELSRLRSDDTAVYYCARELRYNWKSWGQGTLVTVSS VL: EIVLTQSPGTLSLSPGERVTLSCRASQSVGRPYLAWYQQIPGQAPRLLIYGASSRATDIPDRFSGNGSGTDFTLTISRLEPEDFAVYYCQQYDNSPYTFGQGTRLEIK	0.0011
H4H9660P (antibody, human IgG4, V domains shown, Human IgG4 Fc (H4H)) VH: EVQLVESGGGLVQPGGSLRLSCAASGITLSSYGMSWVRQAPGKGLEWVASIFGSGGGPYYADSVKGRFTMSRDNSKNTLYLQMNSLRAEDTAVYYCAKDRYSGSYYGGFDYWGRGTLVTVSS VL: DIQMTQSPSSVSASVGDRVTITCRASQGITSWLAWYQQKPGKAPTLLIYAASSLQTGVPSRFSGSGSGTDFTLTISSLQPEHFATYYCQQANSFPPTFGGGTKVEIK	0.00323

INPUT: May I ask what koff has been recorded for H4H9675P (antibody, human IgG4, V domains shown, Human IgG4 Fc (H4H)) VH: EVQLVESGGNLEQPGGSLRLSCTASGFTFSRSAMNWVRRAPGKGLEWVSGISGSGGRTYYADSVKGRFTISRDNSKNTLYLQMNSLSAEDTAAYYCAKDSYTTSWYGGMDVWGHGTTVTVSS VL: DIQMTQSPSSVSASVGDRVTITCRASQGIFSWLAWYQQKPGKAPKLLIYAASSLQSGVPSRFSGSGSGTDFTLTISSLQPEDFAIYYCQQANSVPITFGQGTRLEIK ?
OUTPUT: 0.00463
